- Test system: 616215-338-R-J1-PDC tumor spheroids, viability
- EXPERIMENT DESCRIPTION: Anticancer human tumor 616215-338-R-J1-PDC patient-derived colon adenocarcinoma cell line growth inhibition [GQUAD]
- CONDITION SET: second compound 0.0316 µM; first compound 1 µM; stronger effect = lower value; spheroids with HUVEC and MSC
- From the text: DNA G-quadruplex Stabilizer Agents in Combinations in Complex Spheroids A high-throughput screen of multi-cell type tumor spheroids was designed to identify active combinations of DNA G-quadruplex stabilizer agents and targeted small molecules. […] Compounds. […] If the clinical Cmax for an agent had not been determined, the highest concentration tested was 10 microM. […]
Catalogue of compounds with associated viability, T/C
Express your answer in %, writing the number without its unit.

INSERT INTO assay_data (compound, endpoint_value) VALUES
  ('CCCS(=O)(=O)Nc1ccc(F)c(C(=O)c2c[nH]c3ncc(-c4ccc(Cl)cc4)cc23)c1F + CN(C)c1ccc(Nc2c3ccc(NC(=O)CCN4CCCC4)cc3nc3cc(NC(=O)CCN4CCCC4)ccc23)cc1', 105),
  ('CC1COCCN1c1cc(C2(O)CC3CCC(C2)O3)c2cnn(-c3ccn[nH]3)c2n1 (stereo not drawn) + Cc1[nH]c2ccc(F)cc2c1-c1nc2c3cccnc3c3ncccc3c2[nH]1', 30.6);

Now turn to the next compound.
[ask] Give its viability, T/C value. Item: CC1COCCN1c1cc(C2(S(C)(=N)=O)CC2)nc(-c2ccnc3[nH]ccc23)n1 (stereo not drawn) + Cc1[nH]c2ccc(F)cc2c1-c1nc2c3cccnc3c3ncccc3c2[nH]1
[reply] 96.1

====

- System: 616215-338-R-J1-PDC tumor spheroids, viability
- EXPERIMENT DESCRIPTION: Anticancer human tumor 616215-338-R-J1-PDC cell line growth inhibition [GQUAD];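 note: spheroids exposed to agents for 7 days before readout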;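 for viability, T/C: percent viability relative to DMSO vehicle control wells taken as 100%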
- CONDITION SET: second compound 1 µM; first compound 3.16 µM; stronger effect = lower value; spheroids with HUVEC and MSC
Measured viability, T/C by item
// note: answer is a bare numeric in %

Solved entries:
INSERT INTO assay_data (compound, assay_target, measurement_unit, endpoint_value) VALUES
  ('CCCS(=O)(=O)Nc1ccc(F)c(C(=O)c2c[nH]c3ncc(-c4ccc(Cl)cc4)cc23)c1F + Cc1[nH]c2ccc(F)cc2c1-c1nc2c3cccnc3c3ncccc3c2[nH]1', '616215-338-R-J1-PDC tumor spheroids, viability', '%', 91.5),
  ('Cc1cccc(N(C)C(=O)C2C(O)CCN2c2nc(C)cc(C(F)(F)F)c2C#N)c1 (stereo not drawn) + Cc1[nH]c2ccc(F)cc2c1-c1nc2c3cccnc3c3ncccc3c2[nH]1', '616215-338-R-J1-PDC tumor spheroids, viability', '%', 105);

[ask] // returns reported viability, T/C for input CC1COCCN1c1cc(-c2ccnn2C)c2ccnc(-c3ccn[nH]3)c2n1 (stereo not drawn) + Cc1[nH]c2ccc(F)cc2c1-c1nc2c3cccnc3c3ncccc3c2[nH]1
[reply] 22.9

====

- Tested on: 616215-338-R-J1-PDC tumor spheroids, viability
- EXPERIMENT DESCRIPTION: Anticancer human tumor 616215-338-R-J1-PDC cell line growth inhibition [GQUAD];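 note: spheroids exposed to agents for 7 days before readout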;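 for viability, T/C: percent viability relative to DMSO vehicle control wells taken as 100%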
- CONDITION SET: second compound 0.1 µM; first compound 1 µM; stronger effect = lower value; spheroids with HUVEC and MSC
RECORDED ENDPOINT: viability, T/C (%)
Express the result in % but write the number alone.

INSERT INTO assay_data (molecule, assay_target, recorded_endpoint, endpoint_value) VALUES
  ('COc1ccc([C@@H](O)c2cc(-c3ncnc4cc(N5CCOCC5)ccc34)c(F)cc2Cl)nn1 + Cc1cnc(CNC(=O)c2c(=O)c3ccc(N4CCCN(C)CC4)nc3n3c2sc2ccccc23)cn1', '616215-338-R-J1-PDC tumor spheroids, viability', 'viability, T/C', 42.2);

Consider the record given below.
[ask] Suppose we examine the molecule O=C(c1cc(Cc2n[nH]c(=O)c3ccccc23)ccc1F)N1CCN(C(=O)C2CC2)CC1 + Cc1[nH]c2ccc(F)cc2c1-c1nc2c3cccnc3c3ncccc3c2[nH]1 ; what viability, T/C value has been reported?
[reply] 102

====

Recorded viability, T/C by entry
- Test system: 616215-338-R-J1-PDC tumor spheroids, viability
- EXPERIMENT DESCRIPTION: Anticancer human tumor 616215-338-R-J1-PDC cell line growth inhibition [GQUAD];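 note: spheroids exposed to agents for 7 days before readout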;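 for viability, T/C: percent viability relative to DMSO vehicle control wells taken as 100%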
- CONDITION SET: second compound 3.16 µM; first compound 1 µM; stronger effect = lower value; spheroids with HUVEC and MSC
- Excerpt: DNA G-quadruplex Stabilizer Agents in Combinations in Complex Spheroids A high-throughput screen of multi-cell type tumor spheroids was designed to identify active combinations of DNA G-quadruplex stabilizer agents and targeted small molecules. […] Compounds. […] If the clinical Cmax for an agent had not been determined, the highest concentration tested was 10 microM. […]
Return type: number; implicit unit %.

As a guide, the following entries are already answered.
INSERT INTO results (compound, measurement_unit, endpoint_value) VALUES
  ('CC(=O)O[C@H]1C(=O)[C@@]2(C)[C@H]([C@H](OC(=O)c3ccccc3)[C@]3(O)C[C@H](OC(=O)[C@H](O)[C@@H](NC(=O)c4ccccc4)c4ccccc4)C(C)=C1C3(C)C)[C@]1(OC(C)=O)CO[C@@H]1C[C@@H]2O + Cc1[nH]c2ccc(F)cc2c1-c1nc2c3cccnc3c3ncccc3c2[nH]1', '%', 10.2),
  ('CCCS(=O)(=O)Nc1ccc(F)c(C(=O)c2c[nH]c3ncc(-c4ccc(Cl)cc4)cc23)c1F + Cc1[nH]c2ccc(F)cc2c1-c1nc2c3cccnc3c3ncccc3c2[nH]1', '%', 95.2);

[ask] Record request: viability, T/C value, item C=CCn1c(=O)c2cnc(Nc3ccc(N4CCN(C)CC4)cc3)nc2n1-c1cccc(C(C)(C)O)n1 + CN(C)c1ccc(Nc2c3ccc(NC(=O)CCN4CCCC4)cc3nc3cc(NC(=O)CCN4CCCC4)ccc23)cc1
[reply] 26

[ask] // lookup viability, T/C for O=C(c1cc(Cc2n[nH]c(=O)c3ccccc23)ccc1F)N1CCN(C(=O)C2CC2)CC1 + CN(C)c1ccc(Nc2c3ccc(NC(=O)CCN4CCCC4)cc3nc3cc(NC(=O)CCN4CCCC4)ccc23)cc1
[reply] 109

[ask] Would you mind telling me what viability, T/C value was observed for CC1COCCN1c1cc(-c2ccnn2C)c2ccnc(-c3ccn[nH]3)c2n1 (stereo not given) + Cc1[nH]c2ccc(F)cc2c1-c1nc2c3cccnc3c3ncccc3c2[nH]1 ?
[reply] 26.1

====

- Tested on: 616215-338-R-J1-PDC tumor spheroids, viability
- EXPERIMENT DESCRIPTION: Anticancer human tumor 616215-338-R-J1-PDC cell line growth inhibition [GQUAD];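 note: spheroids exposed to agents for 7 days before readout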;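 for viability, T/C: percent viability relative to DMSO vehicle control wells taken as 100%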
- CONDITION SET: second compound 10 µM; first compound 0.00316 µM; stronger effect = lower value; spheroids with HUVEC and MSC
RECORDED ENDPOINT: viability, T/C (%)
Please give a number only; it is taken to be in %.

INSERT INTO results (compound, endpoint_value) VALUES
  ('Cn1ncnc1[C@H]1c2n[nH]c(=O)c3cc(F)cc(c23)N[C@@H]1c1ccc(F)cc1 + CN(C)c1ccc(Nc2c3ccc(NC(=O)CCN4CCCC4)cc3nc3cc(NC(=O)CCN4CCCC4)ccc23)cc1', 77.8),
  ('Cc1[nH]c2ccccc2c1CCNCc1ccc(/C=C/C(=O)NO)cc1 + Cc1[nH]c2ccc(F)cc2c1-c1nc2c3cccnc3c3ncccc3c2[nH]1', 99.5);

API: the following record is the query input.
[ask] Which viability, T/C value is on record for Cc1[nH]c2ccccc2c1CCNCc1ccc(/C=C/C(=O)NO)cc1 + CN(C)c1ccc(Nc2c3ccc(NC(=O)CCN4CCCC4)cc3nc3cc(NC(=O)CCN4CCCC4)ccc23)cc1 ?
[reply] 93

====

- Test system: 616215-338-R-J1-PDC tumor spheroids, viability
- EXPERIMENT DESCRIPTION: Anticancer human tumor 616215-338-R-J1-PDC cell line growth inhibition [GQUAD];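 note: spheroids exposed to agents for 7 days before readout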
- CONDITION SET: curve of first compound; second compound 1 µM; spheroids with HUVEC and MSC
RECORDED ENDPOINT: IC50 (µM)
Quick note: give the figure in µM, leave out the unit.

The following compounds have reported results that may help.
INSERT INTO results (compound, recorded_endpoint, endpoint_value) VALUES
  ('CC1COCCN1c1cc(C2(S(C)(=N)=O)CC2)nc(-c2ccnc3[nH]ccc23)n1 (centres undefined) + CN(C)c1ccc(Nc2c3ccc(NC(=O)CCN4CCCC4)cc3nc3cc(NC(=O)CCN4CCCC4)ccc23)cc1', 'IC50', 5.2),
  ('CC(C)(O)C1CCC(Nc2ccc3ncc(-c4cccc(C(F)(F)F)c4)n3n2)CC1 (centres undefined) + CN(C)c1ccc(Nc2c3ccc(NC(=O)CCN4CCCC4)cc3nc3cc(NC(=O)CCN4CCCC4)ccc23)cc1', 'IC50', 0.711);

Turning now to a further compound:
[ask] Tell me the measured IC50 of COc1ccc([C@@H](O)c2cc(-c3ncnc4cc(N5CCOCC5)ccc34)c(F)cc2Cl)nn1 + CN(C)c1ccc(Nc2c3ccc(NC(=O)CCN4CCCC4)cc3nc3cc(NC(=O)CCN4CCCC4)ccc23)cc1 , please.
[reply] 8.16

Provenance of the data: PubChem BioAssay AID2060493
